Data provenance: a melting point compilation (Tetko et al.)

The following compounds are listed with their measured melting point values.

{"columns": ["compound", "melting point"],
 "data": [
  ["CCN(CC)c1nc2ccccc2[nH]c1=O", "151 to 153 °C"],
  ["O=C(O)Cc1csc(-c2ccc(Cl)s2)n1", "136 to 138 °C"],
  ["O=C(O)Cn1ccnn1", "214 to 216 °C"],
  ["Cc1nc(C#N)c(NN)o1", "157 to 159 °C"],
  ["CCCn1c(N)nc2ccccc21", "114 to 116 °C"],
  ["O=C(O)Cc1cc2c(cc1Br)OCCO2", "220 to 222 °C"],
  ["O=C(O)CN1C(=O)CCC1=O", "91 to 93 °C"],
  ["Fc1cccc2c1CCCN2", "45 to 47 °C"]
]}

Exam item: Specify melting point for `NS(=O)(=O)c1ccc(-c2cccc(C(F)(F)F)c2)c(C(=O)O)c1` and stop.
Marked response: 181 to 183 °C

Exam item: Specify melting point for `O=C(O)CN1C(=O)c2cccnc2C1=O` and stop.
Marked response: 239 to 241 °C

Exam item: Specify melting point for `Nc1ccc(S(=O)(=O)C(F)(F)F)cc1` and stop.
Marked response: 94 to 96 °C

Exam item: Specify melting point for `N#Cc1ccc(OCC(=O)O)cc1` and stop.
Marked response: 177 to 179 °C
